Each recorded value in this set is attributed to patent US20190175688A1.

MEASURED ON: T1, HIV-1 YU-2 gp120 (wild-type gp120YU-2, monomeric) (HIV-1 (YU-2), UniProt P35961 32-498)
T1 construct: domain: gp120; only gp120 stood in the assay
PROTOCOL NOTES: SPR competition, sCD4 inhibition: inhibition of gp120 binding to immobilized sCD4
Starred links: 1 amine or outer side, 2 acyl side, 3 side chain; linkers in the order of their positions; H or OH if unused. Positions of bridges follow the written chain, without caps; N, C: chain ends. Non-standard residues stand in square brackets, D forms with d. No end group written: not given here. X2 = (2S,4S)‑4‑(4-ferrocenyl-1H-1,2,3-triazol-1-yl)pyrrolidine‑2‑carboxylic acid, O=C([C@@H]1C[C@H](n2cc(-[c-]3cccc3)nn2)CN1[*:1])[*:2].[Fe+2].c1cc[cH-]c1; Nle = CCCC[C@H](N)C(=O)O
ASSAY ENDPOINT: IC50

Take a look at these entries with their results.
Q. What does the data say about its IC50? Entry: DNI[(2S,4S)‑4‑(4-(adamantan-2-yl)-1H-1,2,3-triazol-1-yl)pyrrolidine‑2‑carboxylic acid]WK-NH2 (lactam 1-6) [AAR029F]
A. ~200 nM

Q. What does the data say about its IC50? Entry: DN[Nle][X2]WK-NH2 (lactam 1-6) [AAR036]
A. ~2000 nM

Next:
Q. What does the data say about its IC50? Entry: DNI[(2S,4S)‑4‑(4-(4-ethylphenyl)-1H-1,2,3-triazol-1-yl)pyrrolidine‑2‑carboxylic acid]WK-NH2 (lactam 1-6) [AAR029H]
A. ~318 nM
